Item-by-item account of protein stability index
Tested on: Saccharomyces cerevisiae
Method Summary: protein stability index of tFT-peptide fusion (C-terminal peptide) (PSI (0-1 scale)); higher = more stable (slower turnover)
Recorded Conditions: genetic background: das1 deletion; temperature: 30 C

Sequence Chain: QGKVRLWKLNHY [UTP18 C-terminal 12 aa]
Target Under Test: Saccharomyces cerevisiae
protein stability index: 0.7

Please fill in: protein stability index reported for DVEELREQLENC [AIM7 C-terminal 12 aa] = 0.692

// recorded protein stability index for EFVVQSLRSRNQ [YFR018C C-terminal 12 aa] : 0.723

For reference, reported protein stability index for ECYLITILWLHK [TDA2 C-terminal 12 aa] stands at 0.256

Recorded protein stability index (sequence FVLSISFRQEQT [YER172C-A C-terminal 12 aa] ): 0.577

Input FPVTLWSKVILK [YHR073W-A C-terminal 12 aa] . Output protein stability index: 0.569

The reported value for AYSLQEGSVVAI [SIF2 C-terminal 12 aa] in terms of protein stability index is 0.714

Item: YKNKVGVGIPFI [STE14 C-terminal 12 aa] | protein stability index: 0.728

get_value(item= GGGVLQLISYIL [YSY6 C-terminal 12 aa] , readout=protein stability index) returns 0.706

###

System: Saccharomyces cerevisiae
Method Summary: protein stability index of tFT-peptide fusion (C-terminal peptide) (PSI (0-1 scale)); higher = more stable (slower turnover)
Recorded Conditions: genetic background: cdc34-1; temperature: 37 C
Measurement Label: protein stability index
Keep it simple and answer with nothing but the number.

A selection of reference data follows.
Sequence Chain: RLPFPVVLFLLF
protein stability index: 0.392
//
Sequence Chain: WPRSFSIILLSR
protein stability index: 0.322
//
Sequence Chain: YALVQHRWVYYF
protein stability index: 0.4
//
Sequence Chain: RWRLWVGWWVVG
protein stability index: 0.453
//
Sequence Chain: ARWNTDRRRRQL
protein stability index: 0.609

Quick note, protein stability index for "RGFIYCSFVVRL" landed at 0.413

Given item "LWVMVLFFPGCS" , the value recorded as its protein stability index is 0.371

// field: protein stability index; key: "SRKRIVALMLSG" ; value = 0.628

What the record says about "IVEVNCILMWIF" : protein stability index is 0.423

Consider "LPSPPSSPPLRP" . Its measured protein stability index is 0.654

// recorded protein stability index for "DSPRGRCVRLLV" : 0.66

Value of protein stability index reported for the sequence "VLCFFWWWCRVC" is 0.4

Reported protein stability index of "LPFFSFSPWWFY" : 0.773

So for "SLSALPRPPRLL" , the logged protein stability index turned out to be 0.669

Record "AERPVLIIIEFG" , field protein stability index: 0.416

"LSARVFCFWFFS" has a reported protein stability index of 0.586

Consider "RGVPPPPWTPPP" . Its measured protein stability index is 0.706

For "VYCLVLFFSQWC" the sequence record lists protein stability index as 0.42

Measured protein stability index of "GAWLAVCVVREG" : 0.493

###

Tested on: Saccharomyces cerevisiae
Method Summary: protein stability index of tFT-peptide fusion (C-terminal peptide) (PSI (0-1 scale)); higher = more stable (slower turnover)
Recorded Conditions: genetic background: wild type; temperature: 30 C
Measurement Label: protein stability index
Reply with just the number.

Examples with answers:
Sequence Chain: VSSPRLSPRLLY
protein stability index: 0.775
//
Sequence Chain: PGCGRKSAFGLT
protein stability index: 0.699
//
Sequence Chain: LLVNSFLIFPPH
protein stability index: 0.685
//
Sequence Chain: GWGGFQFECGWV
protein stability index: 0.651
//
Sequence Chain: KIRGYLMPLTLL
protein stability index: 0.503

Consider the additional sequence presented here.
Reported protein stability index for "KTTERRQTKSRV" was 0.688

The reported numbers originate from the supplement of paper PMC10724198.
